Origin of the recorded values: PubChem BioAssay (NCI)

system: ACHN renal; experiment: NCI tumour cell line growth inhibition, 48 h
List of TGI values.

>>> df
                                   compound  reported_metric    result
0                  CC(C)(C)CC(C)(C)NC(=S)NO              TGI  > 100 µM
1  COc1ccc(C(Cc2ccccc2)C2NC(=S)NC2=O)cc1 (stereo not drawn)              TGI   > 25 µM

### Prompt Would you kindly share the measured TGI for COc1ccc2c(c1)CC[C@@H]1C2CC[C@](C)(C#N)C1CC#N (stereo partly drawn) ?
### Response > 100 µM

### Prompt Would you kindly share the measured TGI for "Cc1cccc2c1c1ccc3c(c1n2C)C(=O)C=CC3=O" ?
### Response 18 µM

### Prompt Would you kindly share the measured TGI for "CC(C)c1nc(N(C)S(C)(=O)=O)nc(-c2ccc(F)cc2)c1/C=C/[C@@H](O)C[C@@H](O)CC(=O)O" ?
### Response > 100 µM

### Prompt Would you kindly share the measured TGI for COCC1OC(S(=O)(=O)c2ccccc2)C(O)C(OC)C1OC (stereo not drawn) ?
### Response > 100 µM

### Prompt Would you kindly share the measured TGI for "O=S(=O)(c1ccc(-c2nnc(-c3ccc(F)cc3)o2)cc1)c1ccc(-c2nnc(-c3ccc(F)cc3)o2)cc1" ?
### Response 46.8 µM

### Prompt Would you kindly share the measured TGI for "O=C(Sc1c(-c2ccccc2)c(=O)n(-c2ccccc2)c(=S)n1-c1ccccc1)c1cccs1" ?
### Response > 100 µM

----------
system: HCT-116 colon; experiment: NCI tumour cell line growth inhibition, 48 h; in the data active = GI50 below about 0.43 µM; inactive = the rest
Outcome (select one): 1 = active, -1 = inactive

Check out these entries, answers already filled in.
>>> df
                                   molecule   study_system  assigned_label
0  O=C(/C=C/c1ccc(C(F)(F)F)cc1)Nc1ccc(C=C2c3ccccc3C(=O)c3ccccc32)cc1  HCT-116 colon              -1
1  Cc1ccc2nc(-c3ccc(OCC(=O)N=Nc4c(O)[nH]c5ccccc45)cc3)[nH]c2c1  HCT-116 colon              -1
2  C=C(C)C1CC/C(C)=C/CC[C@]2(C)O[C@@H]2CCC2=CC1OC2=O (stereo not given in full)  HCT-116 colon              -1
3  CN(C)CCNC(=O)c1ccc(-c2nc3ccc4[nH]ncc4c3c3c2C2CCC3C2)cc1 (stereo not given)  HCT-116 colon              -1
4  CCCCCCCC(=O)OCCCC1[C@]2(C)CC[C@@]3(C)C([C@H](C)CCC=C(C)C)CC[C@]3(C)C2CC[C@]12OC2(C)C (stereo not given in full)  HCT-116 colon              -1
5  O=S1(=O)N(Cc2ccccc2)[C@@H](Cc2ccccc2)[C@H](O)[C@H](O)[C@H](Cc2ccccc2)N1Cc1ccccc1  HCT-116 colon              -1

### Prompt Which outcome was assigned to "NS(=O)(=O)c1ccc(N=Nc2c(O)[nH]c3ccc(C(=O)NCc4ccncc4)cc23)cc1" in this test?
### Response -1

### Prompt Which outcome was assigned to "Cc1ncc(C(=O)Nc2ccc(CN3CCN(C)CC3)c(C(F)(F)F)c2)cc1C#Cc1ccc(N)nc1" in this test?
### Response 1

### Prompt Which outcome was assigned to Clc1cccc(N2CCN(CCCN3CCc4c([nH]c5ccccc45)C3c3cccnc3)CC2)c1 (stereo not given) in this test?
### Response -1

### Prompt Which outcome was assigned to "CCOC(=O)c1c(C)n(Cc2ccc(Cl)cc2Cl)c2c1cc1oc(=O)c(=O)n3cnc2c13" in this test?
### Response -1

----------
List of TGI values.
test system: OVCAR-3 ovarian; test: NCI tumour cell line growth inhibition, 48 h

compound	study_system	reported_metric	result
CN(C)CCNC(=O)c1ccc(-c2nc3ccc4[nH]ncc4c3c3c2C2CCC3C2)cc1 (centres undefined)	OVCAR-3 ovarian	TGI	5.9 µM
NC(=O)[C@@H](CC1CC1)[C@@H](CCC(F)(F)F)C(=O)N[C@H]1N=C(c2ccccc2)c2cccc(F)c2NC1=O	OVCAR-3 ovarian	TGI	> 100 µM
CCN1CCN(c2cc(C)nc(N(CCCNc3ccnc4cc(Cl)ccc34)Cc3ccc4c(c3)OCO4)n2)CC1	OVCAR-3 ovarian	TGI	6.09 µM
Oc1c(Cl)cc(Cl)c2ccc(Cn3cc(-c4cc(C(F)(F)F)cc(C(F)(F)F)c4)nn3)nc12	OVCAR-3 ovarian	TGI	2.56 µM
Cc1cc(NC(=O)C2C3C=CC(O3)C2C(=O)O)no1 (centres undefined)	OVCAR-3 ovarian	TGI	> 100 µM

### Prompt Would you kindly share the measured TGI for "[O-]c1ccccc1C=Nc1ccc2c(c1)CCC2.[O-]c1ccccc1C=Nc1ccc2c(c1)CCC2.[O]=[U+2]=[O]" ?
### Response > 100 µM

### Prompt Would you kindly share the measured TGI for NS(=O)(=O)c1ccc(N2N=C3c4ccccc4CC3C2c2cccs2)cc1 (centres undefined) ?
### Response 47.8 µM

### Prompt Would you kindly share the measured TGI for "Cc1c(C(=O)/C=C/C=C/c2ccccc2)[n+](=O)c2ccccc2n1[O-]" ?
### Response 83.3 µM

### Prompt Would you kindly share the measured TGI for NCCCCC1NC(=O)C(CC(=O)O)NC(=O)CNC(=O)C(CCCN=C(N)N)NC(=O)C(N)CSSCC(C(=O)O)NC(=O)C(CC(=O)O)NC(=O)C2CCCN2C(=O)CNC1=O (centres undefined) ?
### Response > 100 µM

### Prompt Would you kindly share the measured TGI for CC(C)(C)C(=O)OCC1OC(N=[N+]=[N-])C(OC(=O)C(C)(C)C)C(OC(=O)C(C)(C)C)C1OC(=O)C(C)(C)C (centres undefined) ?
### Response > 100 µM

### Prompt Would you kindly share the measured TGI for CCOC(=O)CCC1(C(=O)OCC)CCCC1=O (centres undefined) ?
### Response > 100 µM

----------
List of TGI values.
test system: HT29 colon; assay: NCI tumour cell line growth inhibition, 48 h

Here is how some compounds turned out for TGI.
compound	TGI
CSc1nc(NC2OC(COC(C)=O)C(OC(C)=O)C(OC(C)=O)C2OC(C)=O)c(N=C(C)C(C)=O)c(=O)[nH]1 (stereo not drawn)	> 100 µM
Cc1c2c(cc3c1C(=O)C(=O)C1=C3OC[C@@H]1C)C(C)(C)CCC2	32.5 µM
Cc1ccc(-n2cc(-c3ccc(Cl)cc3)c3c(NN)ncnc32)cc1	19 µM
CCCc1c(C(=O)OCC)[nH]c(-c2ccc(-c3[nH]c(C(=O)OCC)c(CCC)c3C(=O)OCC)s2)c1C(=O)OCC	> 100 µM
COc1ccc2nc3c(c(NCCCN(C)C)c2c1)CCCC3	27.6 µM
O=C(N/C(=C\c1ccc(Br)cc1)c1nc2ccccc2[nH]1)c1ccccc1	36.4 µM
CCOc1ccc(N=NC2C(=O)N(C(=O)CC(=O)Nc3ccccc3)N=C2C)cc1 (stereo not drawn)	> 100 µM
[O-][n+]1c(CN2CCCCC2)nc2cccc3c2c1-c1ccccc1-3	51.8 µM
CCN1CCN(Cc2ccc(NC(=O)Nc3nc4ccc(Oc5ccnc(C(=O)NC)c5)cc4s3)cc2C(F)(F)F)CC1	3.42 µM
CN(C)c1nc(=NCc2ccco2)ss1	20.4 µM

### Prompt Would you kindly share the measured TGI for "O=C1OC(c2ccccc2)=N/C1=C\c1ccc(Oc2ccc(Cl)c(Cl)c2)cc1" ?
### Response > 100 µM

### Prompt Would you kindly share the measured TGI for "CN(C)c1ccc(/C=C/C(=O)N[C@@H]2C(=O)N3[C@@H]2SC(C)(C)[C@@H]3C(=O)O)cc1" ?
### Response > 100 µM

### Prompt Would you kindly share the measured TGI for "CC(C)(O)/C=C/C(=O)[C@](C)(O)[C@H]1[C@H](O)C[C@@]2(C)[C@@H]3CC=C4[C@@H](C[C@H](O)C(=O)C4(C)C)[C@]3(C)C(=O)C[C@]12C" ?
### Response 18.3 µM

### Prompt Would you kindly share the measured TGI for "O=C(/C=C/c1ccc(O)c(O)c1)NCc1c[nH]c2ccccc12" ?
### Response > 100 µM

### Prompt Would you kindly share the measured TGI for COc1cc(C2C(Cl)C(=O)N2NC(=O)c2ccc(NC(C)=O)cc2)ccc1O (stereo not drawn) ?
### Response > 100 µM

### Prompt Would you kindly share the measured TGI for "N#C/C(=C\c1cccc(O)c1O)C(N)=O" ?
### Response > 100 µM

### Prompt Would you kindly share the measured TGI for "Cc1ccc(Oc2ccccc2N)cc1" ?
### Response > 100 µM

### Prompt Would you kindly share the measured TGI for "CCOC(=O)c1c(C)nc2c(c1-c1cn(-c3ccccc3)nc1-c1ccccc1)C(=O)c1ccccc1-2" ?
### Response > 100 µM

### Prompt Would you kindly share the measured TGI for C#CCNC(=O)NCCCCC(NC(=O)OCc1ccccc1)C(=O)OCc1ccccc1 (stereo not drawn) ?
### Response > 100 µM

### Prompt Would you kindly share the measured TGI for "CCOc1ccc2c(c1)C(=O)c1c-2n(CCCBr)c(=O)c2cc([N+](=O)[O-])ccc12" ?
### Response > 100 µM

### Prompt Would you kindly share the measured TGI for "O=c1[nH]c(=O)n(COCCO)c2ccsc12" ?
### Response > 100 µM

### Prompt Would you kindly share the measured TGI for COC(=O)CC(C(C(=O)OCc1ccccc1)C(C)O)N1C(=O)OC(c2ccccc2)C1c1ccccc1 (stereo not drawn) ?
### Response > 100 µM

### Prompt Would you kindly share the measured TGI for CC(C)(O)C1CC[C@]2(C)[C@H]3CC[C@@H]4[C@@]5(C)CCCC(C)(C)[C@@H]5CC[C@@]4(C)[C@]3(C)CC[C@@H]12 (stereo partly drawn) ?
### Response > 100 µM

### Prompt Would you kindly share the measured TGI for "CCn1c(-c2cc3c([nH]c4ccccc43)c(-c3cccc(O)c3)n2)n[nH]c1=S" ?
### Response 6.97 µM

### Prompt Would you kindly share the measured TGI for O=[N+]([O-])c1nccn1CC(O)CN1CCCCC1 (stereo not drawn) ?
### Response > 100 µM
